From: paper PMC4552634

- System: P. falciparum stage V gametocytes
- Design: BacTiter-Glo ATP luminescence viability of purified stage V gametocytes in 384-well plates, per cent inhibition versus DMSO
- measurement-parameters: 48 h, 5 µM; inhibitor
Among all 13,000 compounds or so, about 3,200 (25%) showed an effect of 50% or more. This is one part of the list.
readout-name: % Inhibition (%)
Give bare numbers, in %.

Please give % Inhibition for each item listed below.
1. O=C(Nc1cn(-c2ccc(OCc3cccc(F)c3)c(Cl)c2)c2ncncc12)c1ccncc1
2. Cc1nc(-c2ccncc2)sc1C(=O)Nc1ccc(Cl)cc1C(=O)Nc1ccc(Cl)cc1
3. CCCCCC1c2[nH]c3ccccc3c2CCN1C(=O)OCc1ccccc1 (stereo not shown)
4. Fc1ccc2cc(C=Cc3ccncc3)[nH]c2c1

OUTPUT:
-11.19
3.625
-7.791
-53.7

Please give % Inhibition for each item listed below.
1. Cn1ccnc1CCC(=O)Nc1ccc(Cl)cc1C(=O)Nc1ccc(Cl)cc1
2. CC(CCCCOCCc1ccccc1)NCC(O)c1cc(Cl)c(N)c(Cl)c1 (stereo not shown)
3. O=C(/C=C/c1ccc(Cl)c(Cl)c1)N1CCC(CN2CCC(Cc3nc4ccccc4[nH]3)CC2)CC1
4. Brc1cc(Br)c2c(c1)C(NCCCNc1nc3ncccc3[nH]1)CCN2 (stereo not shown)
5. O=C(Nc1ccc(Cl)cc1C(=O)Nc1ccncc1)c1ccc(Cl)cc1Cl
6. CCCCCCCCNCc1c(O)ccc2ccccc12

OUTPUT:
[12.32, 16.2, 26.7, -91.96, 59.79, 26.15]

Please give % Inhibition for each item listed below.
1. O=C(Nc1ccc(Cl)c(Cl)c1)Nc1ccc(F)c([N+](=O)[O-])c1
2. C=CCn1c(Sc2ccc(C#N)c([N+](=O)[O-])c2)nnc1-c1cc(OC)cc(OC)c1
3. Cc1ccc(C)c(NC(=O)NC2CCN(c3ccnc(Nc4ccc(F)cc4)n3)C2)c1 (stereo not shown)
4. CCn1c(C2CCN(CCC3CCN(C(=O)/C=C/c4ccc(Cl)c(Cl)c4)CC3)CC2)nc2ccccc21

OUTPUT:
1. -17.87
2. 71.82
3. -9.129
4. -5.757
